- TEST_SYSTEM: T1, EWS RRM-RG2 (UniProt Q01844 361-517)
- T1 sequence: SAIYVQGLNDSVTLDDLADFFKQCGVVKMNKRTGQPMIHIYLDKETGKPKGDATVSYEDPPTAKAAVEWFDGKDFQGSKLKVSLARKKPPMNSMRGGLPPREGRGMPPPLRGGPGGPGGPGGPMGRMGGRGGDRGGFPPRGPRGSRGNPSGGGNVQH
- EXPERIMENT: ITC

BINDER | Kd
TAAGGGAGGGCGGGAGGGAA (structured_DNA) [pu20m2 DNA G4] | 3.28 µM
